Measured CC50, listed per entry for reference.
assay: Cytotoxicity against human MT4 cells by MTT assay; assay type: cell-based
endpoint label: CC50

INSERT INTO results (structure_string, endpoint_label, reported_result) VALUES
  ('Cc1cc(C)cc(Cc2nc(SCc3ccc([N+](=O)[O-])cc3)[nH]c(=O)c2C)c1', 'CC50', '> 316 µM'),
  ('CCc1c(Cc2cccc(Br)c2)nc(SCc2ccc([N+](=O)[O-])cc2)[nH]c1=O', 'CC50', '187 µM'),
  ('CCc1c(Cc2cccc3ccccc23)nc(SCc2ccc(OC)cc2)[nH]c1=O', 'CC50', '261 µM'),
  ('CCc1c(Cc2ccccc2Br)nc(SCc2ccc([N+](=O)[O-])cc2)[nH]c1=O', 'CC50', '> 272 µM'),
  ('COc1ccc(CSc2nc(Cc3cc(C)cc(C)c3)c(C)c(=O)[nH]2)cc1', 'CC50', '> 329 µM'),
  ('Cc1c(Cc2ccccc2Br)nc(SCc2ccc([N+](=O)[O-])cc2)[nH]c1=O', 'CC50', '≥ 246 µM'),
  ('CCc1c(Cc2c(Cl)cccc2Cl)nc(SCc2ccc(OC)cc2)[nH]c1=O', 'CC50', '> 287 µM');

---

// IC50 lookup, one value per entry
system: Human immunodeficiency virus 2; test: Antiviral activity against HIV2 ROD infected in human MT4 cells assessed as inhibition of virus-induced cytopathic effect after 4 days by MTT assay; type: functional, organism-based; conditions: Human immunodeficiency virus 2, ROD, MT4, 96 h
endpoint label: IC50

INSERT INTO assay_data (structure_string, reported_result) VALUES
  ('O=c1[nH]cnc2c1ncn2[C@H]1CC[C@@H](CO)O1', '2.71 µM'),
  ('CCc1c(Cc2cc(C)cc(C)c2)nc(SCc2ccc(OC)cc2)[nH]c1=O', '> 317 µM'),
  ('CCc1c(Cc2ccccc2Br)nc(SCc2ccc(OC)cc2)[nH]c1=O', '> 165 µM'),
  ('Cc1c(Cc2cccc(Br)c2)nc(SCc2ccc([N+](=O)[O-])cc2)[nH]c1=O', '> 280 µM'),
  ('COc1ccc(CSc2nc(Cc3cccc4ccccc34)c(C(C)C)c(=O)[nH]2)cc1', '> 37.4 µM'),
  ('CCc1c(Cc2c(Cl)cccc2Cl)nc(SCc2ccc([N+](=O)[O-])cc2)[nH]c1=O', '> 278 µM'),
  ('CCc1c(Cc2cc(C(F)(F)F)cc(C(F)(F)F)c2)nc(SCc2ccc(OC)cc2)[nH]c1=O', '> 249 µM'),
  ('Cc1cc(C)cc(Cc2nc(SCc3ccc([N+](=O)[O-])cc3)[nH]c(=O)c2C)c1', '> 316 µM'),
  ('CCc1c(Cc2cc(C)cc(C)c2)nc(SCc2ccccc2)[nH]c1=O', '> 343 µM'),
  ('CCc1c(Cc2cccc(Br)c2)nc(SCc2ccc(OC)cc2)[nH]c1=O', '> 201 µM'),
  ('COc1ccc(CSc2nc(Cc3cc(C)cc(C)c3)c(C)c(=O)[nH]2)cc1', '> 329 µM'),
  ('COc1ccc(CSc2nc(Cc3ccc(-c4ccccc4)cc3)c(C)c(=O)[nH]2)cc1', '> 100 µM'),
  ('Cc1c(Sc2ccccc2)n(COCCO)c(=O)[nH]c1=O', '> 405 µM'),
  ('CCc1c(Cc2ccc(Br)cc2)nc(SCc2ccc(OC)cc2)[nH]c1=O', '> 281 µM'),
  ('CCc1c(Cc2c(Cl)cccc2Cl)nc(SCc2ccc(OC)cc2)[nH]c1=O', '> 287 µM'),
  ('CCc1c(Cc2ccccc2Br)nc(SCc2ccc([N+](=O)[O-])cc2)[nH]c1=O', '> 272 µM'),
  ('COc1ccc(CSc2nc(Cc3cccc(Br)c3)c(C)c(=O)[nH]2)cc1', '> 290 µM'),
  ('COc1ccc(CSc2nc(Cc3cc(C(F)(F)F)cc(C(F)(F)F)c3)c(C)c(=O)[nH]2)cc1', '> 256 µM'),
  ('COc1ccc(CSc2nc(Cc3ccc(Br)cc3)c(C)c(=O)[nH]2)cc1', '> 290 µM'),
  ('Cc1c(Cc2cc(C(F)(F)F)cc(C(F)(F)F)c2)nc(SCc2ccc([N+](=O)[O-])cc2)[nH]c1=O', '> 248 µM'),
  ('Cc1c(Cc2ccccc2Br)nc(SCc2ccc([N+](=O)[O-])cc2)[nH]c1=O', '> 246 µM'),
  ('CCc1c(Cc2cccc3ccccc23)nc(SCc2ccc(OC)cc2)[nH]c1=O', '> 227 µM');
